assay: Pharmacokinetics of TAD vs IVAD (cefazolin, metronidazole) in TISF and serum; settings: female, human, in vivo, 600 mg, AUC[TISF]TAD, metronidazole; Study 5 (Abdomen) TAD1: 600 mg, 172 mg/L in TAD
MEASUREMENT_LABEL: AUC (µg·h/mL)
Numbers only here, please. The scale is µg·h/mL.

// query Please look up its AUC: Cc1ncc([N+](=O)[O-])n1CCO
// result 1030

----------
test: Pharmacokinetics of TAD vs IVAD (cefazolin, metronidazole) in TISF and serum; details: female, human, in vivo, 500 mg, AUC[Serum]IVAD, metronidazole; Study 4; IVAD dose 500 mg
MEASUREMENT_LABEL: AUC

// query Please look up its AUC: Cc1ncc([N+](=O)[O-])n1CCO [Metronidazole]
// result 122 µg·h/mL

----------
assay: clinical; conditions: female, human, in vivo, 500 mg, AUC[TISF]TAD
MEASUREMENT_LABEL: AUC (µg·h/mL)
Numbers only here, please. The scale is µg·h/mL.

// query Please look up its AUC: Cc1ncc([N+](=O)[O-])n1CCO [Metronidazole]
// result 2600

----------
assay: Pharmacokinetics of TAD vs IVAD (cefazolin, metronidazole) in TISF and serum; details: female, human, in vivo, 600 mg, AUC[Serum]IVAD, metronidazole; Study 5; IVAD dose 600 mg
MEASUREMENT_LABEL: AUC (µg·h/mL)
Numbers only here, please. The scale is µg·h/mL.

// query Please look up its AUC: Cc1ncc([N+](=O)[O-])n1CCO
// result 127

----------
experiment: clinical; details: female, human, in vivo, 600 mg, AUC[Serum]TAD
MEASUREMENT_LABEL: AUC (µg·h/mL)
Numbers only here, please. The scale is µg·h/mL.

// query Please look up its AUC: Cc1ncc([N+](=O)[O-])n1CCO
// result 81
